Biological target: HsProRS (Homo sapiens, UniProt P07814)
Sequence (P07814 1007-1512 limits assumed): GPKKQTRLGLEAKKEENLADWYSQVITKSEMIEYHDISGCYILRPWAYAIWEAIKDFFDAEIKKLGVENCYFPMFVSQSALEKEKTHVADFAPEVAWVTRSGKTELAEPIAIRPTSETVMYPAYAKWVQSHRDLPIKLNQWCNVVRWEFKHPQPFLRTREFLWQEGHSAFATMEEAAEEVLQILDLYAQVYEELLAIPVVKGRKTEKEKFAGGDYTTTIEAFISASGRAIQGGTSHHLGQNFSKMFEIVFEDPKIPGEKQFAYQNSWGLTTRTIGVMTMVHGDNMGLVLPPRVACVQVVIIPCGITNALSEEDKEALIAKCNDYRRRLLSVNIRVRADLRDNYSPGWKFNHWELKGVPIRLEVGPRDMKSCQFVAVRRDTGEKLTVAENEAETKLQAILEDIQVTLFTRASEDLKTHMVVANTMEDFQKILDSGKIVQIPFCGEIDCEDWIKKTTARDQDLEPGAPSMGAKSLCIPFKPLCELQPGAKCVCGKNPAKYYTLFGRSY
Assay: TR-FRET ligand displacement assay with tracer MAT379, HsProRS
Type: binding
Counter-ions that a name gives are not always drawn.
property measured: Kd

compound	measured target	Kd
O=C(CCCCCNC(=S)NC1CCCCC1)NCC1CCN(C(=O)Nc2nccnc2C(=O)NC2Cc3ccccc3C2)CC1	HsProRS (Homo sapiens, UniProt P07814)	> 5.09 µM
O=C(CCCCCNC(=O)Nc1ccccc1)NC1CCN(C(=O)Nc2nccnc2C(=O)NC2Cc3ccccc3C2)CC1	HsProRS (Homo sapiens, UniProt P07814)	0.504 µM
Nc1nccnc1C(=O)NC1Cc2ccccc2C1	HsProRS (Homo sapiens, UniProt P07814)	> 5.09 µM
NC1CCN(C(=O)Nc2nccnc2C(=O)NC2Cc3ccccc3C2)CC1 [Compound 8, dihydrochloride]	HsProRS (Homo sapiens, UniProt P07814)	> 5.09 µM
NC(=O)Nc1nccnc1C(=O)NC1Cc2ccccc2C1	HsProRS (Homo sapiens, UniProt P07814)	> 5.09 µM

Hi there! I need Kd for each item below, if you can.
1. Nc1ncnc2c1ncn2[C@@H]1O[C@H](CNS(=O)(=O)NC(=O)OCCn2cnc3ccccc3c2=O)[C@@H](O)[C@H]1O
2. CC(C)(C)OC(=O)N1CCC[C@@H](OC(=O)NS(=O)(=O)N2CCN(C(=O)Nc3nccnc3C(=O)NC3Cc4ccccc4C3)CC2)[C@@H]1CC(O)Cn1cnc2cc(Br)c(Cl)cc2c1=O (stereo partly shown)

1. > 5.09 µM
2. 0.00842 µM

---

Please go through the items and note down their log10(Kd).
biological target: PfcProRS (Plasmodium falciparum, UniProt Q8I5R7); test: TR-FRET ligand displacement assay with tracer MAT379, PfcProRS; assay type: binding; conditions: PfcProRS (KD [nM]) +proline, 100 μM Pro
Sequence (Q8I5R7 whole entry): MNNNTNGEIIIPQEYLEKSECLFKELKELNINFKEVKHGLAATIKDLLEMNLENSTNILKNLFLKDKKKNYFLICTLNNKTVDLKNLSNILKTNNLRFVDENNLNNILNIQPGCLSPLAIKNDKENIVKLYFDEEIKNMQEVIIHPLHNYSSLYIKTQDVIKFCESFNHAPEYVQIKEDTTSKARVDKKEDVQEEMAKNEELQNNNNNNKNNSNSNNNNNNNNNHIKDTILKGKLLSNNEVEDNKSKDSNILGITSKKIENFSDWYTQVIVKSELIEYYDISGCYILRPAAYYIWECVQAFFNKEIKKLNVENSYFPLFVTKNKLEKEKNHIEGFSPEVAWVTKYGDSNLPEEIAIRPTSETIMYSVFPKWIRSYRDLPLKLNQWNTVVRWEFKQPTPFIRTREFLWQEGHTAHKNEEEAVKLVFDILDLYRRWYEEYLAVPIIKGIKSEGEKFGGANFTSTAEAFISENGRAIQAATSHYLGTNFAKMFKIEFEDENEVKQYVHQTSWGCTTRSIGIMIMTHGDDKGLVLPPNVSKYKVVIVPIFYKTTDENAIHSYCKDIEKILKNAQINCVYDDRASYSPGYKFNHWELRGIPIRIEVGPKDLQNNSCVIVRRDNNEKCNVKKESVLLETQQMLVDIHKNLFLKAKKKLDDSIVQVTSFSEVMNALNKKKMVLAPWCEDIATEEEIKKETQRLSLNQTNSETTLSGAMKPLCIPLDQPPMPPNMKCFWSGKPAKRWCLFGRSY
Where a name gives a salt, the structure may show the parent alone.
Each number you see is log10 of Kd, and the unit inside the log is nM.

Completed entries (count: 4):
> print(dat)
                                   compound                           measured.target  assay.result
1  O=C(NS(=O)(=O)N1CCN(C(=O)Nc2nccnc2C(=O)NC2Cc3ccccc3C2)CC1)OC[C@@H]1CCCN1 [MAT457, hydrochloride]  PfcProRS (Plasmodium falciparum, UniProt Q8I5R7)          2.07
2  NCCCCCC(=O)NCC1CCN(C(=O)Nc2nccnc2C(=O)NC2Cc3ccccc3C2)CC1 [Compound 44, dihydrochloride]  PfcProRS (Plasmodium falciparum, UniProt Q8I5R7)          2.43
3  O=C(NC1Cc2ccccc2C1)c1nccnc1NC(=O)C1CCC1 [Compound 20]  PfcProRS (Plasmodium falciparum, UniProt Q8I5R7)          2.00
4  O=C(NC1Cc2ccccc2C1)c1nccnc1NC(=O)N1CCNCC1 [Compound 14, dihydrochloride]  PfcProRS (Plasmodium falciparum, UniProt Q8I5R7)          3.21

Turning now to a further record.
Assign log10(Kd) to the following record: CC(C)(C)OC(=O)NCC1CCN(C(=O)Nc2nccnc2C(=O)NC2Cc3ccccc3C2)CC1 [Compound 9]
2.55

---

Please go through the items and note down their Kd.
target: HsProRS (Homo sapiens); experiment: TR-FRET ligand displacement assay with tracer MAT379, HsProRS; assay type: binding; conditions: no proline, no ATP; read-out: HsProRS (KD [nM]) −
Give bare numbers, in nM.

molecule	measured target	Kd / nM
Nc1ncnc2c1ncn2[C@@H]1O[C@H](COS(=O)(=O)NC(=O)OC2CCCNC2CC(=O)Cn2cnc3cc(Br)c(Cl)cc3c2=O)[C@@H](O)[C@H]1O (some centres unmarked) [MAT430]	HsProRS (Homo sapiens)	18.4
O=C(NC1Cc2ccccc2C1)c1nccnc1NC(=O)C1CCOCC1 [Compound 18]	HsProRS (Homo sapiens)	7400
O=C(CCCCCNC(=S)NC1CCCCC1)NC1CCN(C(=O)Nc2nccnc2C(=O)NC2Cc3ccccc3C2)CC1 [MAT483]	HsProRS (Homo sapiens)	1000

Assign Kd to the following record: O=C(NC1Cc2ccccc2C1)c1nccnc1NC(=O)C1CCC1 [Compound 20]
738

---

Please go through the items and note down their log10(Kd).
target: HsProRS (Homo sapiens, UniProt P07814); test: TR-FRET ligand displacement assay with tracer MAT379, HsProRS; type: binding; conditions: read-out: HsProRS (KD [nM]) +proline; 100 μM Pro
Where a name gives a salt, the structure may show the parent alone.
Each number you see is log10 of Kd, and the unit inside the log is nM.

Completed entries (count: 8):
> print(dat)
                                   molecule  property.measured  assay.result
1  CC(C)(C)OC(=O)N[C@H]1CC[C@@H](C(=O)Nc2nccnc2C(=O)NC2Cc3ccccc3C2)CC1          log10(Kd)          1.92
2  CC1(C(=O)Nc2nccnc2C(=O)NC2Cc3ccccc3C2)CCCCC1          log10(Kd)          0.41
3  NCCCCCC(=O)NCCCCCC(=O)NC1CCN(C(=O)Nc2nccnc2C(=O)NC2Cc3ccccc3C2)CC1          log10(Kd)          3.35
4  O=C(NC1Cc2ccccc2C1)c1nccnc1NC(=O)N1CCCCC1          log10(Kd)         -0.45
5  O=C(NC1Cc2ccccc2C1)c1nccnc1NC(=O)C1CCOCC1          log10(Kd)          2.35
6   O=C(NC1Cc2ccccc2C1)c1nccnc1NC(=O)C1CCC1          log10(Kd)          1.12
7  CC(C)(C)OC(=O)NCCCCCC(=O)NCCCCCC(=O)NC1CCN(C(=O)Nc2nccnc2C(=O)NC2Cc3ccccc3C2)CC1          log10(Kd)          2.89
8  NCC1CCN(C(=O)Nc2nccnc2C(=O)NC2Cc3ccccc3C2)CC1 [Compound 10, dihydrochloride]          log10(Kd)          3.13

Hi there! I need log10(Kd) for each item below, if you can.
1. NCCCCCC(=O)NC1CCN(C(=O)Nc2nccnc2C(=O)NC2Cc3ccccc3C2)CC1 [Compound 42, dihydrochloride]
2. O=C(NC1Cc2ccccc2C1)c1nccnc1NC(=O)C1(O)CCCCC1

[2.89, 1.34]

---

biological target: PfcProRS (Plasmodium falciparum, UniProt Q8I5R7); experiment: TR-FRET ligand displacement assay with tracer MAT379, PfcProRS; format: binding; settings: PfcProRS (KD [nM]) +proline, 100 μM Pro
Where a name gives a salt, the structure may show the parent alone.
property measured: Kd

> print(dat)
                                   compound                           measured.target  assay.result
1  NCCCCCC(=O)NC1CCN(C(=O)Nc2nccnc2C(=O)NC2Cc3ccccc3C2)CC1 [Compound 42, dihydrochloride]  PfcProRS (Plasmodium falciparum, UniProt Q8I5R7)        295 nM
2  O=C(NS(=O)(=O)N1CCN(C(=O)Nc2nccnc2C(=O)NC2Cc3ccccc3C2)CC1)OC[C@H]1CCCN1  PfcProRS (Plasmodium falciparum, UniProt Q8I5R7)        552 nM
3  Nc1ncnc2c1ncn2[C@@H]1O[C@H](CNS(=O)(=O)NC(=O)OCCn2cnc3ccccc3c2=O)[C@@H](O)[C@H]1O  PfcProRS (Plasmodium falciparum, UniProt Q8I5R7)       1810 nM

Turning now to a further record.
Answer with Kd of `O=C(NC1Cc2ccccc2C1)c1nccnc1NC(=O)N1CCC(CCO)CC1` measured for PfcProRS (Plasmodium falciparum, UniProt Q8I5R7).
339 nM
